Origin of values: ChEMBL document CHEMBL4118161

- Organism: Mus musculus
- procedure.text: Inhibition of hedgehog signaling pathway in mouse Light2 cells at 100 nM after 48 hrs by Gli-luciferase reporter gene assay relative to control
- Format: cell-based
quantity.measured: inhibition (%)

>>> number("Cc1c(-c2ccnn2C)nnc(N2CCC(NC(=O)c3cccc(F)c3)CC2)c1C")
82.1
>>> number("Cc1c(-c2ccnn2C)nnc(N2CCC(NC(=O)c3ccc(Oc4ccccc4)cc3C(F)(F)F)CC2)c1C")
78.9
>>> number("Cc1c(-c2ccnn2C)nnc(N2CCC(NC(=O)c3ccccc3C(F)(F)F)CC2)c1C")
79.7
>>> number("Cc1c(-c2ccnn2C)nnc(N2CCC(NC(=O)c3cc(F)ccc3C(F)(F)F)CC2)c1C")
82
